Values from PubChem BioAssay (NCI)

# Test system: HCT-15 colon
# ASSAY_INFO: NCI tumour cell line growth inhibition, 48 h
MEASUREMENT_NAME: TGI

INSERT INTO measurements (compound, assayed_target, reported_value) VALUES
  ('COC1/C=C/C(C)C(C(C)C(OC)C(C)CCC(=O)C(C)C(CC(=O)O)OC)OC(=O)/C=C/C=C(\C)CC(OC)CC2=CC(=O)O[C@H](C2)C(C)C(OC)CC(OC)/C=C/C(C)C(OC)C1 (some centres undefined)', 'HCT-15 colon', '> 4.35 µM'),
  ('O=C1c2ccccc2C(=O)c2c(NCCCN3CCOCC3)ccc(NCCCN3CCOCC3)c21', 'HCT-15 colon', '> 100 µM'),
  ('CC(=O)/C(C=Nc1c(C)n(C)n(C)c1=O)=C(/O)c1ccccc1', 'HCT-15 colon', '> 50 µM'),
  ('COc1ccc(/C=C2\c3cc(OC)c(OC)c(OC)c3CC[C@@H]2O)cc1F', 'HCT-15 colon', '> 100 µM'),
  ('CN(C)c1ccc2nc(CC(O)(C(F)(F)F)C(F)(F)F)ccc2c1', 'HCT-15 colon', '> 10 µM'),
  ('CN(C)c1ccc(N=C2C=CC(=O)c3ccccc32)cc1', 'HCT-15 colon', '17.7 µM'),
  ('CCCCc1ccc(C#CC#Cc2ccc(CCCC)s2)s1', 'HCT-15 colon', '> 100 µM'),
  ('S=C=NC1CCC(c2cc3ccccc3s2)(N2CCCCC2)CC1 (centres undefined)', 'HCT-15 colon', '3.7 µM'),
  ('Cc1cc(Cl)ccc1NC(=O)C(=O)C(C(=O)c1ccccc1)C1OC(=O)c2ccccc21 (centres undefined)', 'HCT-15 colon', '> 100 µM');
